target: MDMX (Homo sapiens, UniProt O15151); test: Competitive fluorescence polarization assay for MDMX; assay type: binding; conditions: competitive FP assay, read-out: IC50 (MDMX)
Sequence (O15151 1-125): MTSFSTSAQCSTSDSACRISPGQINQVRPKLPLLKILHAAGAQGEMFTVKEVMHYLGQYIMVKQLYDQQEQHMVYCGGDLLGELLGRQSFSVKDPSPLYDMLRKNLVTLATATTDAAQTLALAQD
pIC50: −log10 of the molar value. Where a SMILES comes first, the peptide text is derived from it. Bridges are numbered along the chain shown (N, C = ends). [ ]: non-standard residue; d: D form. R8 = C=CCCCCCC[C@@](C)(N)C(=O)O; S5 = C=CCCC[C@](C)(N)C(=O)O
REPORTED ENDPOINT: pIC50

[
  {
    "MOLECULE": "CC(=O)N[C@@H](CC(C)C)C(=O)N[C@H](C(=O)N[C@@H](Cc1ccccc1)C(=O)N[C@]1(C)CCCCCCC=CCCC[C@@](C)(C(=O)N[C@@H](CO)C(=O)N[C@@H](C)C(=O)N[C@@H](Cc2ccccc2)C(N)=O)NC(=O)[C@H](CC(C)C)NC(=O)[C@H](CCC(N)=O)NC(=O)[C@H](C)NC(=O)[C@H](Cc2c[nH]c3ccccc23)NC(=O)[C@H](Cc2ccc(O)cc2)NC(=O)[C@H](C)NC1=O)[C@@H](C)O [compound 7] (Ac-LTF[R8]AYWAQL[S5]SAF-NH2; staple 4-11)",
    "READOUT VALUE": "7.00 to 8.00"
  }
]

Here is the next item to consider.
Input line: Identify the measured pIC50 of CC(=O)N[C@@H](CC(C)C)C(=O)N[C@H](C(=O)N[C@@H](Cc1ccccc1)C(=O)N[C@]1(C)CCCCCCC=CCCC[C@@](C)(C(=O)N[C@@H](C)C(=O)N[C@@H](C)C(=O)N[C@@H](Cc2ccccc2)C(=O)N[C@H](C)C(N)=O)NC(=O)[C@H](CC(C)C)NC(=O)[C@H](CCC(N)=O)NC(=O)[C@H](C)NC(=O)[C@H](Cc2c[nH]c3ccccc23)NC(=O)[C@H](Cc2ccc(O)cc2)NC(=O)[C@H](C)NC1=O)[C@@H](C)O (single isomer, unassigned) for MDMX (Homo sapiens, UniProt O15151).
Output line: 6.00 to 7.00

Reference source for all entries: patent US8927500B2
